- TGT: Adenosine receptor A1 (Homo sapiens)
- METHOD: Percent change in cAMP content of CHO (Chinese hamster ovary) cells expressing human Adenosine A1 receptor at 0.01 uM
- Assay type: functional, cell-based
# if value of Change reaches -10%, tag 1 (yes); if it stays below, tag 0 (no)

Completed entries (count: 10):
INSERT INTO results (chemical_string, discrete_label) VALUES
  ('Nc1sc2c(c1C(=O)c1ccc3ccccc3c1)CCN(Cc1ccc(Cl)cc1)C2', '1 (yes)'),
  ('Nc1sc2c(c1C(=O)c1ccc(Cl)c3ccccc13)CCCC2', '0 (no)'),
  ('Cc1ccc(C(=O)c2c(N)sc3c2CCC3)c2ccccc12', '1 (yes)'),
  ('Nc1sc2c(c1C(=O)c1ccc3c(c1)Cc1ccccc1-3)CCN(Cc1ccccc1)C2', '1 (yes)'),
  ('Cc1sc(N)c(C(=O)c2cccc3ccccc23)c1C', '1 (yes)'),
  ('Cc1cc(C(=O)c2c(N)sc3c2CCN(Cc2ccccc2)C3)cc2ccc(Cl)cc12', '1 (yes)'),
  ('Nc1sc2c(c1C(=O)c1ccc(I)c3ccccc13)CCC2', '1 (yes)'),
  ('Nc1sc2c(c1C(=O)c1ccc3ccccc3c1)CCCC2', '0 (no)'),
  ('Nc1sc2c(c1C(=O)c1ccc3ccccc3c1)CCN(Cc1ccc([N+](=O)[O-])cc1)C2', '1 (yes)'),
  ('Nc1sc2c(c1C(=O)c1ccc3ccccc3c1)CCC2', '0 (no)');

Query: Answer whether Change of "Nc1sc2c(c1C(=O)c1ccc3ccccc3c1)CCN(Cc1ccccc1)C2" is greater than or equal to -10%.
Result: 0 (no)

Query: Answer whether Change of "Nc1sc2c(c1C(=O)c1ccc3ccccc3c1)CCN(Cc1ccccc1F)C2" is greater than or equal to -10%.
Result: 1 (yes)

Query: Answer whether Change of "COc1ccc(CN2CCc3c(sc(N)c3C(=O)c3ccc4ccccc4c3)C2)c(OC)c1OC" is greater than or equal to -10%.
Result: 1 (yes)
